tested on: MCF7 breast; assay: NCI-60 one-dose screen, 48 h (100 = growth as untreated, 0 = no growth, -100 = all killed); conditions: 10 µM unless noted
This is part of a sample that, as a whole, favours compounds with a hit. Of some 83,000 tested, about 20% had one in any assay.
# growth per entry
Answer format: numeric, % implied, no suffix.

Example entries begin here.
O=C1Nc2ccc(Br)cc2/C1=N/c1n[nH]c(=S)s1
91.7
COP(=O)(OC)C(C)(C)CC(=O)CC(C#N)(C#N)C(C#N)C#N
92.1
O=C1CNC(c2ccccc2)C(c2ccccc2)N1 (centres undefined)
91.8

Read the next record carefully.
Just so you know, measured growth for "O=C(Cn1c(=O)sc2nc3ccccc3nc21)Nc1ncc(Cc2cccc(Cl)c2Cl)s1" came out at 91.6
